molecular target: Cytochrome P450 2C9 (Homo sapiens, UniProt P11712)
Sequence (P11712 whole entry): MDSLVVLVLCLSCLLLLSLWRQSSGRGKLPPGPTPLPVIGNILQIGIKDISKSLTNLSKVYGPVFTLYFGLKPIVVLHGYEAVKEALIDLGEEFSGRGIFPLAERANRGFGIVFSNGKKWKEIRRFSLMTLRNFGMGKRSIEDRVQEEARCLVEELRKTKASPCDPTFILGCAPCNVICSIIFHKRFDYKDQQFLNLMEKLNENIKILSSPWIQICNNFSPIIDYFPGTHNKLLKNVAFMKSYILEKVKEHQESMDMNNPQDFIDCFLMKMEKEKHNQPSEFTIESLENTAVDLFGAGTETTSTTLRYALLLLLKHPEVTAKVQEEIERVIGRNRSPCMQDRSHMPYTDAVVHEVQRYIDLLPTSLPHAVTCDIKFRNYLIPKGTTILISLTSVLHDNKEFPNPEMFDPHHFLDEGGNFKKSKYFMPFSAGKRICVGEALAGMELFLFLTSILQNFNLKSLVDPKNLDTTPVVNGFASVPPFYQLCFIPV
Quantity: IC50 (µM)

substance_smiles=C[C@H]1CC[C@H](Cn2c(N3CCO[C@@H]4CCC[C@H]43)nc3cc(-c4noc(=O)[nH]4)nc(-c4cncc(Cl)c4)c32)CC1 quantity=IC50 output_unit=µM observed_measurement=31

----------
test: Intrinsic Clearance in rhesus monkey hepatocytes; type: ADME, cell-based, Macaca mulatta, Hepatocyte; conditions: read-out: CLH
Quantity: CLint scaled (mL/min/kg)

substance_smiles=C[C@H]1CC[C@H](Cn2c(N3CCO[C@@H]4CCC[C@H]43)nc3cc(-c4noc(=O)[nH]4)nc(-c4cncc(Cl)c4)c32)CC1 quantity="CLint scaled" output_unit=mL/min/kg observed_measurement=70

----------
assay: Unbound clearance in rat; type: ADME; settings: in vivo
This listing pairs compounds with measured CL free.
Quantity: CL free (L/h/kg)

compound=C[C@@H]1COC[C@@H](C)N1c1nc2cc(-c3noc(=O)[nH]3)nc(-c3cncc(Cl)c3)c2n1C[C@H]1CC[C@H](C)CC1 quantity="CL free" observed_measurement=130
compound=C[C@H]1CC[C@H](Cn2c(N3CCOC[C@H]3c3ccccc3)nc3cc(-c4noc(=O)[nH]4)nc(-c4cncc(Cl)c4)c32)CC1 quantity="CL free" observed_measurement=1244.7
compound=C[C@H]1CC[C@H](Cn2c(N3CCO[C@@H]4CCC[C@H]43)nc3cc(-c4noc(=O)[nH]4)nc(-c4cncc(Cl)c4)c32)CC1 quantity="CL free" observed_measurement=312.8
compound=C[C@H]1CC[C@H](Cn2c(N3CCC[C@H]3CF)nc3cc(-c4noc(=O)[nH]4)nc(-c4cncc(Cl)c4)c32)CC1 quantity="CL free" observed_measurement=194.6
compound="COCC(C)c1nc2cc(-c3noc(=O)[nH]3)nc(-c3cncc(Cl)c3)c2n1[C@H](C)[C@H]1CC[C@H](C)CC1 (some centres not stated)" quantity="CL free" observed_measurement=69
compound=C[C@H]1CC[C@H](Cn2c(N3CCC[C@H]3C(F)(F)F)nc3cc(-c4noc(=O)[nH]4)nc(-c4cncc(Cl)c4)c32)CC1 quantity="CL free" observed_measurement=673.98
compound=CCO[C@@H](c1nc2cc(-c3noc(=O)[nH]3)nc(-c3cncc(Cl)c3)c2n1[C@H](C)[C@H]1CC[C@H](C)CC1)C1CC1 quantity="CL free" observed_measurement=123.6

----------
test: Clearance in rat plasma at 1 mg/kg, po or 0.5 mg/kg, iv; assay type: ADME, organism-based
Quantity: clearance (mL/min/kg)

substance_smiles=C[C@H]1CC[C@H](Cn2c(N3CCO[C@@H]4CCC[C@H]43)nc3cc(-c4noc(=O)[nH]4)nc(-c4cncc(Cl)c4)c32)CC1 quantity=clearance output_unit=mL/min/kg observed_measurement=36

----------
assay: Intrinsic clearance in dog hepatocytes; assay type: ADME, cell-based, Canis lupus familiaris, Hepatocyte; conditions: read-out: CLH
Quantity: CLint scaled

substance_smiles=C[C@H]1CC[C@H](Cn2c(N3CCO[C@@H]4CCC[C@H]43)nc3cc(-c4noc(=O)[nH]4)nc(-c4cncc(Cl)c4)c32)CC1 observed_measurement="78 mL/min/kg"

----------
biological target: Cytochrome P450 3A4 (Homo sapiens)
Sequence (P08684 whole entry): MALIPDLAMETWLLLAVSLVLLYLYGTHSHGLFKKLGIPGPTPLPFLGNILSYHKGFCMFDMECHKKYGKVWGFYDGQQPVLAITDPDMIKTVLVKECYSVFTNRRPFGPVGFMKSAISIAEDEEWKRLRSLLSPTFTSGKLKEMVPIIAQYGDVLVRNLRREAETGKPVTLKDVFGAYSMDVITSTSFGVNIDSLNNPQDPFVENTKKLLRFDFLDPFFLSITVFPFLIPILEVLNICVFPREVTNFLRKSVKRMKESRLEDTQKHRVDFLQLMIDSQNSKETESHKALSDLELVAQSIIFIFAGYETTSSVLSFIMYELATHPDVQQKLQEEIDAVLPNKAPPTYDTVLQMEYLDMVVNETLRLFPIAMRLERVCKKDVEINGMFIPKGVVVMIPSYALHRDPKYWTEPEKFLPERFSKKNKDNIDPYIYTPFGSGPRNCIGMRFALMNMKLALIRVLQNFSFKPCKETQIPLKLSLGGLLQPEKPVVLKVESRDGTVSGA
pIC50: −log10 of the molar value.
Quantity: pIC50

substance_smiles=C[C@H]1CC[C@H](Cn2c(N3CCO[C@@H]4CCC[C@H]43)nc3cc(-c4noc(=O)[nH]4)nc(-c4cncc(Cl)c4)c32)CC1 system_name="Cytochrome P450 3A4 (Homo sapiens)" observed_measurement="< 4.30"

----------
biological target: Cytochrome P450 3A4 (Homo sapiens); assay: Activation of CYP3A4 (unknown origin)
Quantity: EC50

substance_smiles=C[C@H]1CC[C@H](Cn2c(N3CCO[C@@H]4CCC[C@H]43)nc3cc(-c4noc(=O)[nH]4)nc(-c4cncc(Cl)c4)c32)CC1 system_name="Cytochrome P450 3A4 (Homo sapiens)" observed_measurement="> 30 µM"

----------
biological target: Tumour suppressor p53/oncoprotein Mdm2 (Homo sapiens); assay: Inhibition of HDM2/p53 interaction in human HCT-116 cells expressing p53RE/Bla incubated for 16 hrs by beta-lactamase reporter gene assay; format: cell-based
Sequence (P04637 whole entry): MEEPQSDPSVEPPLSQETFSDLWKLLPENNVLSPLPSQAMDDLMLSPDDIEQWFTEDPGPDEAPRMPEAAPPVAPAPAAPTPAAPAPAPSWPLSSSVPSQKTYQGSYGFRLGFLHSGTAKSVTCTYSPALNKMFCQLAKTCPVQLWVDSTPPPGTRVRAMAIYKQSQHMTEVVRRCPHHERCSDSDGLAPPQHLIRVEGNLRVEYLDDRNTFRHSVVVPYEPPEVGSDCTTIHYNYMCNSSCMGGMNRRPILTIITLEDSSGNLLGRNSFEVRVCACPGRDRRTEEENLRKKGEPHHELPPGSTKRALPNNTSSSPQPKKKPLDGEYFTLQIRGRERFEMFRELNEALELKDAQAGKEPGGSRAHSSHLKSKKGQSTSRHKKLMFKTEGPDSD
Sequence (Q00987 whole entry): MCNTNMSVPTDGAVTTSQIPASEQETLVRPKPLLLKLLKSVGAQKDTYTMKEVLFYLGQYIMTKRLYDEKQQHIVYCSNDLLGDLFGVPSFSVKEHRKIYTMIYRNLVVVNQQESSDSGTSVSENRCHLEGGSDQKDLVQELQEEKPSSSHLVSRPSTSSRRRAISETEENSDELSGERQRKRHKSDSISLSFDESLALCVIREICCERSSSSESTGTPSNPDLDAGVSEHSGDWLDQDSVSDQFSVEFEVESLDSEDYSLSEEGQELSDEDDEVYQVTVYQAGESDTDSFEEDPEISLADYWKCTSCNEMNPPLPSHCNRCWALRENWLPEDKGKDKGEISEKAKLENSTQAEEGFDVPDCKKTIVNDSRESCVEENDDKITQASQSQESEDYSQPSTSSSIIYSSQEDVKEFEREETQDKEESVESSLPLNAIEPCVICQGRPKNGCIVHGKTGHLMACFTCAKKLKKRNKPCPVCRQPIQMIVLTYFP
pIC50: −log10 of the molar value.
Reported pIC50 values follow for various molecules
Quantity: pIC50

substance_smiles=C[C@H]1CC[C@H](Cn2c(N3CCOC[C@H]3c3ccccc3)nc3nc(-c4noc(=O)[nH]4)nc(-c4ccccc4)c32)CC1 quantity=pIC50 observed_measurement=6.20
substance_smiles=C[C@@H](Nc1nc(-c2nnc[nH]2)nc2nc(N3CCOC[C@H]3c3ccccc3)n(C[C@H]3CC[C@H](C)CC3)c12)C1CCC1 quantity=pIC50 observed_measurement=6.14
substance_smiles=C[C@H]1CC[C@H](Cn2c(N3CCOC[C@H]3c3ccccc3)nc3nc(-c4noc(=O)[nH]4)nc(-c4cccc(Cl)c4)c32)CC1 quantity=pIC50 observed_measurement=6.95
substance_smiles=C[C@@H](Nc1nc(C(=O)O)nc2nc(N3CCOC[C@H]3c3ccccc3)n(C[C@H]3CC[C@H](C)CC3)c12)C1CCC1 quantity=pIC50 observed_measurement=5.96
substance_smiles=C[C@@H](Nc1nc(CO)nc2nc(N3CCOC[C@H]3c3ccccc3)n(C[C@H]3CC[C@H](C)CC3)c12)C1CCC1 quantity=pIC50 observed_measurement=5.39
substance_smiles=Cc1cncc(-c2nc(-c3noc(=O)[nH]3)nc3nc(N4CCOC[C@H]4c4ccccc4)n(C[C@H]4CC[C@H](C)CC4)c23)c1 quantity=pIC50 observed_measurement=5.43
substance_smiles=C[C@@H](Nc1nc(-c2n[nH]c(=O)n2C)nc2nc(N3CCOC[C@H]3c3ccccc3)n(C[C@H]3CC[C@H](C)CC3)c12)C1CCC1 quantity=pIC50 observed_measurement=6.00

----------
# maps each entry to its logD
assay: Lipophilicity, logD of the compound at pH 7 by RP-HPLC analysis; format: physicochemical; details: buffer
Quantity: logD

compound=C[C@@H](Nc1nc(C(=O)O)nc2nc(N3CCOC[C@@H]3c3ccccc3)n(Cc3ccc(C(F)(F)F)cc3)c12)C1CCC1 quantity=logD observed_measurement=2.34
compound=CCO[C@@H](c1nc2cc(-c3noc(=O)[nH]3)nc(-c3cncc(Cl)c3)c2n1[C@H](C)[C@H]1CC[C@H](C)CC1)C1CC1 quantity=logD observed_measurement=2.75
compound=CC(C)c1ccnc(-c2nc3nc(C(=O)O)nc(N[C@H](C)C4CCC4)c3n2Cc2ccc(C(F)(F)F)s2)c1 quantity=logD observed_measurement=2.67
compound=C[C@H]1CC[C@H](Cn2c(N3CCOC[C@H]3c3ccccc3)nc3nc(-c4noc(=O)[nH]4)nc(-c4ccccc4)c32)CC1 quantity=logD observed_measurement=2.72
compound="COCC(C)c1nc2cc(-c3noc(=O)[nH]3)nc(-c3cncc(Cl)c3)c2n1[C@H](C)[C@H]1CC[C@H](C)CC1 (stereo partly drawn)" quantity=logD observed_measurement=2.59
compound=C[C@@H](Nc1nc(-c2noc(=O)[nH]2)nc2nc(N3CCOC[C@H]3c3ccccc3)n(C[C@H]3CC[C@H](C)CC3)c12)C1CCC1 quantity=logD observed_measurement=3.27
compound=C[C@@H](Nc1nc(C(=O)O)nc2nc(NC3CCCCC3)n(Cc3ccc(C(F)(F)F)cc3)c12)C1CCC1 quantity=logD observed_measurement=2.62
compound=C[C@H]1CC[C@H](Cn2c(N3CCOC[C@H]3c3ccccc3)nc3nc(-c4noc(=O)[nH]4)nc(-c4cncc(Cl)c4)c32)CC1 quantity=logD observed_measurement=2.55
